- Study System: hERG channel (Homo sapiens)
- Sequence (Q12809 whole entry): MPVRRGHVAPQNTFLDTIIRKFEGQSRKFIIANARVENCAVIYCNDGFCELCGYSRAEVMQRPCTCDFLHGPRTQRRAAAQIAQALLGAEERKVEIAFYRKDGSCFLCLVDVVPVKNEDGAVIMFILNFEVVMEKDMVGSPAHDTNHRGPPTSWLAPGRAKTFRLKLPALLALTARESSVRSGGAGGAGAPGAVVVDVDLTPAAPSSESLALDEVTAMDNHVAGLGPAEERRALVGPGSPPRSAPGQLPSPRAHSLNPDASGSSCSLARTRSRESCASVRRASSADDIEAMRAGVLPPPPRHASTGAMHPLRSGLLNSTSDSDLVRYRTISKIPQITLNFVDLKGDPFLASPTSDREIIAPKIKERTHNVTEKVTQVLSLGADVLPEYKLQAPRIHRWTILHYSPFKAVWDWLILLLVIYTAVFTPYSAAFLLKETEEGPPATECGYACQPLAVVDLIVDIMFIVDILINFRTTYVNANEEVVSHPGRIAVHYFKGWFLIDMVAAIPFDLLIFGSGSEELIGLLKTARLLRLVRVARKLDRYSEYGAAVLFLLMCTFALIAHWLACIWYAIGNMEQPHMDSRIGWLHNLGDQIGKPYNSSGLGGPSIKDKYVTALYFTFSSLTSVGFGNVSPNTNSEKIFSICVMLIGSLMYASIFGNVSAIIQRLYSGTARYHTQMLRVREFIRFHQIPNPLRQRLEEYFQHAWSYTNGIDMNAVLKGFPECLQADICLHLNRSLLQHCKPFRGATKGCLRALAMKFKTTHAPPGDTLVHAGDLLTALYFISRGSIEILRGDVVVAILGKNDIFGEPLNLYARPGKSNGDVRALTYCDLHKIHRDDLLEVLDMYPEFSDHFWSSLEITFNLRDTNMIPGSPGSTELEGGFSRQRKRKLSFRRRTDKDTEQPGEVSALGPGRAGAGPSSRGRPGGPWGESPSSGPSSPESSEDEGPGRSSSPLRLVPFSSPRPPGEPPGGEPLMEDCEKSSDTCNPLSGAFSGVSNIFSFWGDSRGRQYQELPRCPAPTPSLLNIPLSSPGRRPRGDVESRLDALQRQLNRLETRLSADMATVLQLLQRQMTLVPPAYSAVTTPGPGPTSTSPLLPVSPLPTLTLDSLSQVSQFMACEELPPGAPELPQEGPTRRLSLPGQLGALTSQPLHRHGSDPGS
- Protocol Details: Effect on hERG channel, whole-cell membrane clamp
- Protocol Conditions: HEK293 cell line stably expressing hERG, whole-cell membrane clamp; read-out: hERG semi-inhibiting concentration (IC50)
Assay Endpoint: IC50

[[record]]
test_smiles = "O=C(O)c1ccc(-c2nnc(N3[C@@H]4CC[C@H]3C[C@@H](OCc3c(-c5c(Cl)cccc5Cl)noc3C3CC3)C4)o2)cc1"
study_system = "hERG channel (Homo sapiens)"
assay_endpoint = "IC50"
endpoint_result = "> 30 µM"


* * *

- Protocol Details: Plasma and liver concentration of the compound after 4 days of administration in the cholestasis rat induced by ANIT
- Assay type: in vivo, SD rats
- Protocol Conditions: SD, liver/plasma, oral, 3 mg/kg/day, 2 h, 3 mg/kg/d
Listed next: entries and their corresponding Kp at 2 h.
Assay Endpoint: Kp at 2 h

[[record]]
compound = "O=C(O)c1ccc(-c2nnc(N3[C@@H]4CC[C@H]3C[C@@H](OCc3c(-c5ccccc5OC(F)(F)F)noc3C3CC3)C4)o2)cc1 [Example 22]"
endpoint_result = 16.1

[[record]]
compound = "O=C(O)c1ccc(-c2nnc(N3[C@@H]4CC[C@H]3C[C@@H](OCc3c(-c5c(Cl)cccc5Cl)noc3C3CC3)C4)o2)cc1 [Example 8]"
endpoint_result = 43.9

[[record]]
compound = "O=C(O)c1ccc(-c2nnc(N3[C@@H]4CC[C@H]3C[C@@H](OCc3c(-c5c(Cl)cccc5Cl)noc3C3CC3)C4)o2)s1 [Example 11]"
endpoint_result = 3.9

[[record]]
compound = "Cc1cc(C(=O)O)ccc1-c1nnc(N2[C@@H]3CC[C@H]2C[C@@H](OCc2c(-c4c(Cl)cccc4Cl)noc2C2CC2)C3)o1 [Example 14]"
endpoint_result = 7.4


* * *

- Protocol Details: Plasma and liver concentration of the compound after 4 days of administration in the cholestasis rat induced by ANIT
- Assay type: in vivo, SD rats
- Protocol Conditions: SD, liver, oral, 3 mg/kg/day, 4 h, 3 mg/kg/d, read-out: Liver concentration of the compound
Assay Endpoint: concentration at 4 h (ng/g)

[[record]]
test_smiles = "O=C(O)c1ccc(-c2nnc(N3[C@@H]4CC[C@H]3C[C@@H](OCc3c(-c5ccccc5OC(F)(F)F)noc3C3CC3)C4)o2)cc1"
assay_endpoint = "concentration at 4 h"
measurement_units = "ng/g"
endpoint_result = 3090

[[record]]
test_smiles = "O=C(O)c1ccc(-c2nnc(N3[C@@H]4CC[C@H]3C[C@@H](OCc3c(-c5c(Cl)cccc5Cl)noc3C3CC3)C4)o2)s1"
assay_endpoint = "concentration at 4 h"
measurement_units = "ng/g"
endpoint_result = 1520

[[record]]
test_smiles = "O=C(O)c1ccc(-c2nnc(N3[C@@H]4CC[C@H]3C[C@@H](OCc3c(-c5c(Cl)cccc5Cl)noc3C3CC3)C4)o2)cc1"
assay_endpoint = "concentration at 4 h"
measurement_units = "ng/g"
endpoint_result = 1190

[[record]]
test_smiles = "Cc1cc(C(=O)O)ccc1-c1nnc(N2[C@@H]3CC[C@H]2C[C@@H](OCc2c(-c4c(Cl)cccc4Cl)noc2C2CC2)C3)o1"
assay_endpoint = "concentration at 4 h"
measurement_units = "ng/g"
endpoint_result = 1150


* * *

Listed next: entries and their corresponding Kp at 2 h.
- Protocol Details: Plasma and liver concentration of the compound after 4 days of administration in the cholestasis rat induced by ANIT
- Format: in vivo, SD rats
- Protocol Conditions: SD, liver/plasma, oral, 10 mg/kg/day, 2 h, 10 mg/kg/d
Assay Endpoint: Kp at 2 h

[[record]]
compound = "O=C(O)c1ccc(-c2nnc(N3[C@@H]4CC[C@H]3C[C@@H](OCc3c(-c5c(Cl)cccc5Cl)noc3C3CC3)C4)o2)cc1 [Example 8]"
assay_endpoint = "Kp at 2 h"
endpoint_result = 54.9

[[record]]
compound = "O=C(O)c1ccc(-c2nnc(N3[C@@H]4CC[C@H]3C[C@@H](OCc3c(-c5c(Cl)cccc5Cl)noc3C3CC3)C4)o2)s1 [Example 11]"
assay_endpoint = "Kp at 2 h"
endpoint_result = 9.5

[[record]]
compound = "Cc1cc(C(=O)O)ccc1-c1nnc(N2[C@@H]3CC[C@H]2C[C@@H](OCc2c(-c4c(Cl)cccc4Cl)noc2C2CC2)C3)o1 [Example 14]"
assay_endpoint = "Kp at 2 h"
endpoint_result = 21

[[record]]
compound = "O=C(O)c1ccc(-c2nnc(N3[C@@H]4CC[C@H]3C[C@@H](OCc3c(-c5ccccc5OC(F)(F)F)noc3C3CC3)C4)o2)cc1 [Example 22]"
assay_endpoint = "Kp at 2 h"
endpoint_result = 14.2

